MEASUREMENT NAME: melting point

{"columns": ["SMILES ENTRY", "RESULT"],
 "data": [
  ["CCOC(=O)c1sc2nc(SCCCN3CCN(c4ccccn4)CC3)[nH]c(=O)c2c1C", "160.1 to 161.8 °C"],
  ["CCOC(=O)c1sc2nc(SCCCN3CCN(c4ccc5ccccc5n4)CC3)[nH]c(=O)c2c1C", "200.1 to 201.4 °C"],
  ["Cc1sc2nc(SCCCN3CCN(c4ccccn4)CC3)[nH]c(=O)c2c1C", "209 to 209.4 °C"],
  ["O=c1[nH]c(CCCCN2CCN(c3ccccn3)CC2)nc2sc3c(c12)CCCC3", "192.6 to 194.4 °C"],
  ["Cc1sc2nc(SCCCN3CCN(c4ccccn4)CC3)n(N)c(=O)c2c1C", "183.1 to 184.8 °C"]
]}
